What polymerase ribozyme fitness (log ratio) was measured for each of the following?
B1: TPR t1 (parent)
chain: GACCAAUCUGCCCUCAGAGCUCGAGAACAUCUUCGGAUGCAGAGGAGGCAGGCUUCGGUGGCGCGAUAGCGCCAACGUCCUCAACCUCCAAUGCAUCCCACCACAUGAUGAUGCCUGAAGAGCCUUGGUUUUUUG

- Variants of: B1
- TEST PROTOCOL: polymerase ribozyme fitness, log enrichment relative to wild type (log ratio); higher = more active; in vitro selection for triplet polymerase activity
Provide a numeric answer; units are not to be included.

Specify reported polymerase ribozyme fitness (log ratio) for the variant shown: GACCAAUCUGCCCUCAGAGCACGAGAAGAUCUUCGGAUGCAGAGGAGGCAGGCUUCAGGGGCGCGAUAGCGCCAACGUCCUCAACCUCCAAUGCAUCCCACCACAUGAUGAUGCCUGAAGAGCUUUGGUAUUUUG [U21A C28G G57A U59G C124U U130A] -3.45

Specify reported polymerase ribozyme fitness (log ratio) for the variant shown: GACCAAUCUCCCCUCAGAGCUCGAGAACAUCUUCGGAUGCAGAGGAGGCAGGCUUCGGUGGCGCGAUAGCGUCAACGUCCUCAACCUCCAAUGCAUCCCACCACAUGAUGAUGCCUGAAGAGCCUUGGUUUUUUG [G10C C72U] -1.32

Specify reported polymerase ribozyme fitness (log ratio) for the variant shown: GACCAAUCUUCCCUCAGAGCUCGAGAACAUCUUCGGAUGCAGAGGAGGCAGGCUUCGGUCGCGCGAUAGCGCCAACGUUCUCAACCUCCAAUGCAUCCCACCACAUGAUGAUGCCUGAACAGCCUUGGUUUUUUG [G10U G60C C79U G120C] 0.981

Specify reported polymerase ribozyme fitness (log ratio) for the variant shown: GACCAAUCUGCCCUCAGAGCUCGAGAACAUCUUAGGAUGCAGAGGAGGCAGGCUACGGUGGCGCGAUAGCGCCAACGUCCUCAACCUACAAUGCAUCCCACCACAUGAUGAUGCCUGAAGAGCCUUGGUUUUUUG [C34A U55A C88A] -3.93

Specify reported polymerase ribozyme fitness (log ratio) for the variant shown: GACCAAUCUGCCCUCAGAGCUCGAGAACAUCUUCGGAUGCAGAGGAGGCAGGCCUCGGUGGCGCGAUAGCGCCAACGUCCUCAACCUCCAAUGCAUCCCACCACAUGAUGAUGCAUGAAGAGCCUUGGUUUUUUG [U54C C115A] -0.609

Specify reported polymerase ribozyme fitness (log ratio) for the variant shown: GACCAAUCUGCUCUCAGGGCUCGAGAACAUCUUCGGAUGCUGAGGACGCAGGCUUCGGUGGCGCGAUAGCGCCAACGUCCUCAACCUCCAAUGCAUCCCACCACAUGAGGAUGCCUGAAGAGCGUUGGUUUUUUG [C12U A18G A41U G47C U109G C124G] -2.39

Specify reported polymerase ribozyme fitness (log ratio) for the variant shown: GGCCAAUCUGCCCUCAGGCCUCGAGAACAUCUUCGGAUGCAGAGGAGGCAGGCUUCGGUGGCGCGAUAGCGCCAACGUCCUCCACCUCCAAAGCAUCCCACCACAUGAUGAUGACUGAAGAGCCUUGCUUUUUUG [A2G A18G G19C A83C U92A C114A G128C] -3.26

Specify reported polymerase ribozyme fitness (log ratio) for the variant shown: GACCAAUCUGCCCUCAGAGCUCGAGAGCAUCUUCGGAUGCAGAGGAGGCAGGCUUCUGUGGCGCGAUAGCGCCAACGUCCUCAACCUCCAAUGCAUCCCACCACAUGAUGAUGCCUGAAGAGCCUUGGUUUUUUG [A27G G57U] -2.3
